The measured values listed here are drawn from paper PMC9667936.

Biological target: 14-3-3γ (Homo sapiens, UniProt P61981)
Construct: made in house; host or cells: E. coli NiCo21 (DE3)
Sequence (P61981 whole entry): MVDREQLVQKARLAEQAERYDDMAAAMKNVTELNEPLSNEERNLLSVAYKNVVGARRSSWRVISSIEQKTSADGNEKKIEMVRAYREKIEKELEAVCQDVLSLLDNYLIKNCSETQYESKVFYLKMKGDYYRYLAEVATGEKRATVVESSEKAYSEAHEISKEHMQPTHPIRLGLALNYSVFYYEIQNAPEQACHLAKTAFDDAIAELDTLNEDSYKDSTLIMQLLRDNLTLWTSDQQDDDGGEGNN
Experiment: Fluorescence anisotropy (FA) binary binding study: 14-3-3 titrated to fluorescein-labelled peptide
Settings: Table S4; FA Kd / Kd of 1; replicate 3
Where a SMILES comes first, the peptide text is derived from it. [ ]: non-standard residue; d: D form. ξ: configuration not given here. Phe(4-NO2) = N[C@@H](Cc1ccc([N+](=O)[O-])cc1)C(=O)O; ξAla(4-thiazolyl) = NC(Cc1cscn1)C(=O)O; pS = N[C@@H](COP(=O)(O)O)C(=O)O; β3hS = N[C@@H](CO)CC(=O)O; Nva = CCC[C@H](N)C(=O)O; βAla = NCCC(=O)O
observed_property: Fold change to 1
# output: bare number, no unit

Exercise: Using the record for CCC[C@H](NC(=O)[C@H](N)CCCCN)C(=O)N[C@@H](Cc1ccc([N+](=O)[O-])cc1)C(=O)NC(Cc1cscn1)C(=O)N[C@@H](COP(=O)(O)O)C(=O)N[C@@H](Cc1ccc([N+](=O)[O-])cc1)C(=O)N[C@@H](CO)CC(=O)NCCC(=O)N[C@@H](Cc1ccc(O)cc1)C(=O)N[C@@H](CCCCN)C(N)=O (stereo partly drawn) [5a] (H-[dK][Nva][Phe(4-NO2)][ξAla(4-thiazolyl)][pS][Phe(4-NO2)][β3hS][βAla]YK-NH2; N-terminus and C-terminus assumed) , report its Fold change to 1.
Key: 22.5
